Catalogue of Ki values
# Experimental target: Serotonin 2 (5-HT2) receptor (Rattus norvegicus, UniProt P30994+P08909+P14842)
# Method description: Inhibition of 5-hydroxytryptamine 2 induced vasoconstriction of rat caudal artery.
# Assay type: tissue-based
Note: a bare number is incomplete; add the unit.

Some solved cases for reference:
CN(C)CCCCCOc1ccccc1CCc1ccccc1; 0.0376 µM
CN(C)CCCCOc1ccccc1CCc1ccccc1; 0.00978 µM

Query :: Identify measured Ki associated with CN(C)CCCOc1ccc(Cl)cc1CCc1ccccc1
Result :: 0.0257 µM

Query :: In one line, give reported Ki of the entry CCCCN(C)CCCCOc1ccccc1CCc1ccccc1 .
Result :: 0.0676 µM

Query :: Quickly give me recorded Ki for CN(C)CCOc1ccccc1CCc1ccccc1
Result :: 0.00633 µM

Query :: Answer with the recorded Ki for the molecule listed here: CN(C)CCCCOc1ccc(CCc2ccccc2)cc1
Result :: 0.416 µM

Query :: Note Ki for the molecule shown: CN(C)CC(O)COc1ccccc1CCc1ccccc1 (configuration not stated)
Result :: 0.0139 µM

====

# Experimental target: Serotonin 2 (5-HT2) receptor (Rattus norvegicus, UniProt P30994+P08909+P14842)
# Method description: Antagonistic activity against 5-hydroxytryptamine 2 receptor on rat frontal cortex membrane.
# Format: functional, tissue-based
Entries and their measured log10(IC50) follow.
Form field - Quantity: IC50; Unit: nM; Scale: log10

Some compounds with recorded log10(IC50):
CN(C)CCCOc1ccc(Cl)cc1CCc1ccccc1; 2.95
CN(C)CCCOc1ccccc1CCc1ccc(N(C)C)cc1.Cl; 1.73

Query :: Item CN(CCCCOc1ccccc1CCc1ccccc1)Cc1ccccc1 : provide log10(IC50)
Result :: 3.65

Query :: Please look at this compound and report its log10(IC50): COc1cccc(CCc2ccccc2OCCCCN(C)C)c1.Cl
Result :: 1.79

====

// reported Ki per item
# Experimental target: Serotonin 2 (5-HT2) receptor (Rattus norvegicus, UniProt P30994+P08909+P14842)
# Method description: Inhibition of 5-hydroxytryptamine 2 induced vasoconstriction of rat caudal artery.
# Type: tissue-based
Hi! Could you send only the number? It should be in nM, unit omitted.

Query :: Look up and state reported Ki for CN(C)CCCOc1ccccc1CCc1ccccc1
Result :: 4.55

Query :: Tell me Ki reported for CN(C)CCCCOc1cccc(CCc2ccccc2)c1
Result :: 517

Query :: Find the measured Ki of COc1cccc(CCc2ccccc2OCCCCN(C)C)c1.Cl and report it.
Result :: 13.1

Query :: Identify the reported Ki for the following entry. CN(C)CCCCCCOc1ccccc1CCc1ccccc1
Result :: 74.9

Query :: Could you please provide reported Ki for CN(C)CC(COc1ccccc1CCc1cccc(F)c1)OC(=O)CCC(=O)O (stereo not given) ? Thanks!
Result :: 41.3

====

Listing of recorded IC50 by entry.
# Experimental target: Serotonin 2 (5-HT2) receptor (Rattus norvegicus, UniProt P30994+P08909+P14842)
# Method description: Antagonistic activity against 5-hydroxytryptamine 2 receptor on rat frontal cortex membrane.
# Assay type: functional, tissue-based
A number alone suffices; assume µM.

CN(C)CCOc1ccccc1CCc1ccccc1; 0.0962
CN(C)CCCCOc1cccc(CCc2ccccc2)c1; 3.3283

Query :: Let me know recorded IC50 for CN(C)CC(O)COc1ccccc1CCc1ccccc1 (centres undefined) , thanks.
Result :: 0.0548

Query :: Please give measured IC50 of the following entry: CN(C)CCCCOc1ccc(CCc2ccccc2)cc1
Result :: 1.976

====

# Experimental target: Serotonin 2 (5-HT2) receptor (Rattus norvegicus, UniProt P30994+P08909+P14842)
# Method description: Inhibition of 5-hydroxytryptamine 2 induced vasoconstriction of rat caudal artery.
# Format: tissue-based
Observed property: Ki (nM)
The figure you give is taken to be in nM; do not add the unit.

Query :: Return value of Ki for input CNCCCCOc1ccccc1CCc1ccccc1 , no commentary.
Result :: 70.6

Query :: Look up Ki of COc1cccc(CCc2ccccc2OCC(CN(C)C)OC(=O)CCC(=O)O)c1.Cl (stereo not given) [SARPOGRELATE HYROCHLORIDE] and report it.
Result :: 17.8

Query :: Specify Ki for CN(C)CCCOc1ccccc1CCc1ccc(N(C)C)cc1.Cl and stop.
Result :: 23.3

Query :: Answer with the recorded Ki for the compound listed here: CN(CCCCOc1ccccc1CCc1ccccc1)Cc1ccccc1
Result :: 198

Query :: Using known records, supply Ki for COc1cccc(CCc2ccccc2OCC(O)CN(C)C)c1 (stereo not given)
Result :: 1.16

====

# Experimental target: Serotonin 2 (5-HT2) receptor (Rattus norvegicus, UniProt P30994+P08909+P14842)
# Method description: Antagonistic activity against 5-hydroxytryptamine 2 receptor on rat frontal cortex membrane.
# Assay type: functional, tissue-based
For each record, check the reported IC50: if it is below 100 nM write Yes, else write No.

Reference set (8 entries):
CN(C)CCCOc1ccccc1CCc1ccccc1; Yes
CCCCN(C)CCCCOc1ccccc1CCc1ccccc1; No
COc1cccc(CCc2ccccc2OCC(CN(C)C)OC(=O)CCC(=O)O)c1.Cl (centres undefined) [SARPOGRELATE HYROCHLORIDE]; Yes
COc1cccc(CCc2ccccc2OCC(O)CN(C)C)c1 (centres undefined); Yes
CN(C)CCCCOc1ccccc1CCc1ccccc1; No
CNCCCCOc1ccccc1CCc1ccccc1; No
CN(C)CCCCCCOc1ccccc1CCc1ccccc1; No
CN(C)CC(COc1ccccc1CCc1cccc(F)c1)OC(=O)CCC(=O)O (centres undefined); No

# ---- query compound ----
Query :: I'd appreciate it if you could check whether CN(C)CCCCCOc1ccccc1CCc1ccccc1 has IC50 smaller than 100 nM.
Result :: No

Hey, just so you know, these numbers are from ChEMBL document CHEMBL1124807.
